Test system: SNB-78
experiment.notes: NCI tumour cell line growth inhibition, 48 h
Active and inactive are the calls of the source. No stated cut-off is given here; in the data, active = GI50 up to about 1.1 µM and inactive = higher.
# output must be one of active, inactive

Consider the following illustrative entries.
CCO[C@]12C[C@H](OC)[C@@]3(O)CC(C1[C@H]3OCc1ccccc1)C13C4C2[C@H](OC)C1[C@](COC)(CN4CC)[C@H](O)C[C@@H]3OC (stereo partly specified)	inactive
CCN(CC)CCn1c2ccccc2c(=O)c2c(OC)ccc(OC)c21	inactive
C=COC(=O)N[C@H]1CCc2cc(OC)c(OC)c(OC)c2-c2ccc(SC)c(=O)cc21	active

Prompt: Which result was noted for this compound in the test: `N/C(=N\O)N/N=C/c1cc2c(cc1Cl)OCO2`
Response: inactive

Prompt: Which result was noted for this compound in the test: CNC(C)Cc1ccccc1O (stereo unspecified)
Response: inactive

Prompt: Which result was noted for this compound in the test: `O=C(c1ccco1)N(C(=S)N1CCN(c2ccccc2)CC1)c1ccccc1`
Response: inactive

Prompt: Which result was noted for this compound in the test: `Cc1ccc(/N=N/c2ccc(N(CCC#N)CCC#N)cc2C)c(Br)c1`
Response: inactive

Prompt: Which result was noted for this compound in the test: `O=C(N/C(=C\c1ccc(Oc2ccc(Cl)c(Cl)c2)cc1)c1nc2ccccc2[nH]1)c1ccccc1`
Response: inactive

Prompt: Which result was noted for this compound in the test: COc1cc2ccnc3c2c(c1OC)CC1CC(O)C(OC)CC31 (stereo unspecified)
Response: inactive

Prompt: Which result was noted for this compound in the test: `Nc1ccc2cc(S(=O)(=O)O)cc(O)c2c1/N=N/c1ccc(NC(=O)Nc2ccc(/N=N/c3c(N)ccc4cc(S(=O)(=O)O)cc(O)c34)c(S(=O)(=O)O)c2)cc1S(=O)(=O)O`
Response: inactive

These measurements were taken from ChEMBL document CHEMBL1201862.
